- Tested on: sera from patients infected with group O HIV-1 retroviruses
- procedure summary: Immunoenzymatic test: Test No. 1 (immunoreactivity of peptides coated on microplates)
- Format: binding, human
- Parameters: key: >: signal greater than the reading capacity of the spectrophotometer
- condition summary: serum 4288*; cyclized peptide 2 μg/ml
No end group written: not given here.
measurement label: ABSORBANCE

INSERT INTO measurements (macromolecule_sequence, endpoint_result) VALUES
  ('LLSLWGCRGRLVCYTSVQWNET [PEPTIDE No. 2 (3B)]', '>'),
  ('LLSSWGCKGRLVCYTSVQWNET [PEPTIDE No. 3 (4B)]', '>'),
  ('LLNLWGCKNRAICYTSVKWNKT (cysteine pairing not given here) [VAU 22 AA, reference compound]', 2.337),
  ('LLSLWGCRGKAVCYTSVQWNET [PEPTIDE No. 1 (2B)]', 2.802);

meta.source: patent US7053175B1
